- Tested on: Klebsiella pneumoniae
- TEST CONTEXT: Concentration 32 ug.mL-1; ASSAY_TEST Inhibition of Bacterial Growth; detection method Absorption (OD600); MEDIA CAMHB; plate type 384well; NBS; CORNING #3640; time 18 hr
- Description: Antibacterial activity against Klebsiella pneumoniae MDR ATCC 70063 (CO-ADD:GN_003); MIC in CAMBH media using NBS plates, by OD(600)
Results with a measured potency or affinity are listed apart.
We begin with a simple list: items and their reported Inhibition.
Provide only the numeric value, understood in %.

Observe how each entry below is paired with its result.
Any idea what Inhibition came out for N#Cc1c(N)nc(S)c(C#N)c1-c1ccccc1 on Klebsiella pneumoniae?
24.85

Any idea what Inhibition came out for Cc1nc2c(cc1C#N)c(N)nn2C on Klebsiella pneumoniae?
19.03

Any idea what Inhibition came out for COc1ccc2c(c1)cc(C(=O)Nc1ccccc1)n2C on Klebsiella pneumoniae?
8.32

Any idea what Inhibition came out for Cn1ccnc1C1c2ccc3cccnc3c2Oc2nc3c(c(N)c21)CCC3 (stereo not given) on Klebsiella pneumoniae?
5.38

Any idea what Inhibition came out for N#CC1(Br)C(=NBr)Oc2ccc3ccccc3c2C1c1ccc([N+](=O)[O-])cc1 (stereo not given) on Klebsiella pneumoniae?
-0.48

Next molecule, Inhibition to be filled in.
Any idea what Inhibition came out for COc1cc(C2c3ccc4ccccc4c3Oc3nc4c(c(N)c32)CCCC4)ccc1O.Cl (stereo not given) on Klebsiella pneumoniae?
-2.62

* * *

- System: Cryptococcus neoformans
- TEST CONTEXT: Concentration 32 ug.mL-1; ASSAY_TEST Inhibition of Fungal Growth; detection method Resazurin; Absorption (OD600-OD570); plate type 384well; NBS; CORNING #3640
- Description: Antifungal activity against Cryptococcus neoformans H99 ATCC 208821 (CO-ADD:FG_002); MIC in YNB media using NBS plates, by Resazurin OD(600-570)
Potency and affinity values are given separately.
We begin with a simple list: items and their reported Inhibition.
Provide only the numeric value, understood in %.

Observe how each entry below is paired with its result.
Fill in the blank: the reported Inhibition of COc1ccccc1C1C(C#N)=C(N)Oc2[nH]nc(C)c21 (stereo not given) is ____.
-7.07

Fill in the blank: the reported Inhibition of COc1ccccc1C1C(C#N)=C(N)Oc2c1ccc1ccccc21 (stereo not given) is ____.
-34.5

Fill in the blank: the reported Inhibition of Cl.NC1(C(=O)O)CC1c1cccc(Cl)c1 (stereo not given) is ____.
-0.59

Fill in the blank: the reported Inhibition of Cc1[nH]c2ccc(OCc3ccccc3)cc2c1C(=O)NN is ____.
-5.65

Fill in the blank: the reported Inhibition of CCOC(=O)C1=C(C)Oc2nc3c(c(N)c2C1c1nccn1C)CCC3 (stereo not given) is ____.
-84.25

Fill in the blank: the reported Inhibition of O=C(O)c1cc2ccccc2[nH]1 [INDOLE-2-CARBOXYLIC ACID] is ____.
-9.27

Fill in the blank: the reported Inhibition of COc1cccc(C2C(C#N)=C(N)Oc3c2ccc2ccccc32)c1 (stereo not given) is ____.
-38.21

Fill in the blank: the reported Inhibition of COc1ccc2c(c1)cc(C(=O)O)n2C is ____.
-23.41

***
Fill in the blank: the reported Inhibition of Cc1cnc2ccc(Cl)cn12 is ____.
1.56

Fill in the blank: the reported Inhibition of COc1cccc(C2c3c(nc4c(c3N)CCCC4)Oc3ccc4ccccc4c32)c1 (stereo not given) is ____.
-0.19

* * *

- System: Candida albicans
- TEST CONTEXT: 32 ug/mL
- Description: Antifungal activity against Candida albicans ATCC 90028 (CO-ADD:FG_001); MIC in YNB media using NBS plates, by OD630
Measured potencies and affinities stand elsewhere.
MEASURE: Inhibition (%)
Provide only the numeric value, understood in %.

Any idea what Inhibition came out for COc1ccc2c(c1)cc(C(=O)O)n2C on Candida albicans?
31.1

Any idea what Inhibition came out for COc1ccc(C2c3c(nc4c(c3N)CCCC4)Oc3ccc4ccccc4c32)c(OC)c1 (configuration not stated) on Candida albicans?
10.9

Any idea what Inhibition came out for Cc1ccc(-c2c(C#N)c(N)nc3c2S(=O)(=O)OC3(C)C)cc1 on Candida albicans?
1.92

Any idea what Inhibition came out for COc1ccc2cc(C3C4=C(CC(C)(C)CC4=O)Oc4nc5c(c(N)c43)CCCC5)c(Cl)nc2c1 (configuration not stated) on Candida albicans?
7.25

Any idea what Inhibition came out for N#Cc1c(N)nc(N)c(C#N)c1-c1ccccc1 on Candida albicans?
1.47

Any idea what Inhibition came out for Cc1ccc(/C=N/NC(=O)c2c[nH]c3ccccc23)cc1 on Candida albicans?
1.17

Any idea what Inhibition came out for CC1=NC(=Cc2ccc([N+](=O)[O-])cc2)C(=O)O1 on Candida albicans?
-0.54

Any idea what Inhibition came out for Cc1ccc(CNNC(=O)c2cc3ccccc3n2C)cc1 on Candida albicans?
1.69

Any idea what Inhibition came out for COc1nc2nc3c(c(N)c2cc1C#N)CCCC3 on Candida albicans?
2.72

Any idea what Inhibition came out for Cn1c(CNNC(=O)c2ccco2)cc2ccccc21 on Candida albicans?
1.4

***
Any idea what Inhibition came out for COc1ccccc1C1C(C#N)=C(N)Oc2c1ccc1ccccc21 (configuration not stated) on Candida albicans?
1.78

Any idea what Inhibition came out for N#Cc1cc2c(N)c3c(nc2nc1N1CCCCC1)CCCC3 on Candida albicans?
1.35

Any idea what Inhibition came out for CC(C)(C)OC(=O)Nc1ncccc1Br on Candida albicans?
1.17

Any idea what Inhibition came out for O=C(Cc1c[nH]c2ccccc12)N/N=C/c1ccco1 on Candida albicans?
-1.03

Any idea what Inhibition came out for N#Cc1cc(C#N)c(N2CCCCC2)nc1Cl on Candida albicans?
0.28

Any idea what Inhibition came out for NC(=O)c1cc2cc(OCc3ccccc3)ccc2[nH]1 on Candida albicans?
6.4

Any idea what Inhibition came out for O=C(Cc1cccc2ccccc12)N/N=C/c1c[nH]c2ccccc12 on Candida albicans?
1.2

* * *

We begin with a simple list: items and their reported Inhibition.
- Tested on: Klebsiella pneumoniae
- TEST CONTEXT: Concentration 32 ug.mL-1; ASSAY_TEST Inhibition of Bacterial Growth; detection method Absorption (OD600); MEDIA CAMHB; plate type 384well; NBS; CORNING #3640; time 18 hr
Measured potencies and affinities stand elsewhere.
Provide only the numeric value, understood in %.

Fill in the blank: the reported Inhibition of Cc1ccc2nc(Cl)c(/C=N/OCc3ccccc3)cc2c1 is ____.
9.15

Fill in the blank: the reported Inhibition of N#CC1=C(Cl)Oc2c(ccc3ccccc23)C1c1cccc([N+](=O)[O-])c1 (stereo not given) is ____.
4.09

Fill in the blank: the reported Inhibition of CN(C)c1nc(N)c(C#N)cc1C#N is ____.
27.85

Fill in the blank: the reported Inhibition of C#CCN(C)Cc1cc2cc(OCCCCC3CCN(Cc4ccccc4)CC3)ccc2n1C is ____.
10.12

Fill in the blank: the reported Inhibition of N#CC1=C(N)Oc2c(ccc3ccccc23)C1c1ccc(O)cc1 (stereo not given) is ____.
6.16

* * *

We begin with a simple list: items and their reported Inhibition.
- Tested on: Candida albicans
- TEST CONTEXT: 32 ug/mL
Results with a measured potency or affinity are listed apart.
Provide only the numeric value, understood in %.

Fill in the blank: the reported Inhibition of N#CC1(Br)C(=NBr)Oc2ccc3ccccc3c2C1c1ccccc1[N+](=O)[O-] (centres undefined) is ____.
4.94

Fill in the blank: the reported Inhibition of N#Cc1c(N)nc(S)c(C#N)c1-c1ccccc1 is ____.
0.7

Fill in the blank: the reported Inhibition of COc1ccc2c(c1)cc(CO)n2C is ____.
3.54

Fill in the blank: the reported Inhibition of CCC(Cc1ccccc1)NNC(=O)c1cc2ccccc2[nH]1 (centres undefined) is ____.
1.13

Next compound, Inhibition to be filled in.
Fill in the blank: the reported Inhibition of N#Cc1c(N)nc(Cl)c(C#N)c1-c1ccccc1 is ____.
6.28

* * *

We begin with a simple list: items and their reported Inhibition.
- System: Cryptococcus neoformans
- TEST CONTEXT: Concentration 32 ug.mL-1; ASSAY_TEST Inhibition of Fungal Growth; detection method Resazurin; Absorption (OD600-OD570); plate type 384well; NBS; CORNING #3640
Entries with a potency or affinity are not part of this list.
Provide only the numeric value, understood in %.

Observe how each entry below is paired with its result.
Fill in the blank: the reported Inhibition of CCOC(=O)C1=C(C)Nc2nc3c(c(N)c2C1c1ccc([N+](=O)[O-])cc1)CCCC3.Cl (configuration not stated) is ____.
-58.17

Fill in the blank: the reported Inhibition of COc1cccc(C2c3c(ccc4ccccc34)OC(=NBr)C2(Br)C#N)c1 (configuration not stated) is ____.
-22.56

Fill in the blank: the reported Inhibition of N#CC1=C(N)Oc2c(ccc3ccccc23)C1c1ccccc1 (configuration not stated) is ____.
-37.74

Fill in the blank: the reported Inhibition of Cc1ccc(CNNC(=O)c2c[nH]c3ccccc23)cc1 is ____.
-5.03

Fill in the blank: the reported Inhibition of COC1(N)Oc2ccc3ccccc3c2C(c2ccccc2)C1(Br)C#N (configuration not stated) is ____.
-6.17

Fill in the blank: the reported Inhibition of COc1ccc(C2c3c(nc4c(c3N)CCCC4)Oc3ccc4ccccc4c32)cc1 (configuration not stated) is ____.
1.85

Next compound, Inhibition to be filled in.
Fill in the blank: the reported Inhibition of CC(=O)Oc1ccc(C=C2N=C(C)OC2=O)cc1 is ____.
-2.97
